Assay text: Identifying Small Molecule Inhibitors of Pancreatic Cancer Stem Cells (SN12C, Adherent) (AID 1259358);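 also: cell survival measured after 48 h of compound exposure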
Experimental context: viability/growth inhibition; series mostly up to 46.1 µM
Inconclusive results are not listed. Calls of active or inactive are those of the source. Calls follow the shape of the dose curve; as a rule, active = well fitted cell-killing curve with a large enough effect; inconclusive = small, poorly fitted or top-dose-only effect; inactive = flat fitted curve, though single readings scatter.
Bench note: report the call from 1 = active, -1 = inactive

Reference set, count: 2
>>> class_assignment("C[C@@H]1CCN(C(=O)CC#N)C[C@@H]1N(C)c1ncnc2[nH]ccc12")
-1
>>> class_assignment("Cc1nnc(C(C)C)n1C1CC2CCC(C1)N2CC[C@H](NC(=O)C1CCC(F)(F)CC1)c1ccccc1 (stereo partly drawn)")
-1

Moving on to the next molecule.
// query Each molecule tested received a call. Report the one for `NC(=O)Nc1cc(-c2ccc(CN3CCOCC3)c(F)c2)sc1C(=O)N[C@H]1CCCNC1` .
// result 1

###

Test system: CP315
Assay text: qHTS profiling for inhibitors of Plasmodium falciparum proliferation (AID 504749);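 also: 0% = DMSO vehicle and full inhibition = artemisinin control; nearly all actives have a fitted effect of over 60% in size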
Experimental context: P. falciparum in erythrocytes, SYBR Green DNA, 72 h; series mostly up to 28.7 µM
Method: NIH National Institute of Allergy and Infectious Diseases [NIAID] NIH Chemical Genomics Center [NCGC] […] Because mature erythrocytes lack DNA, only Plasmodium-derived DNA is detected. NCGC Assay Protocol Summary: The SYBR Green viability assay was adapted from a method described previously (Plouffe et al., 2008). […] The following morning, fluorescence intensity at 485(14) nm excitation and 535(25) nm emission wavelengths was measured on an EnVision (Perkin Elmer) plate reader. […]
Records with an inconclusive call do not appear. Activity calls are given as the source filed them. Calls follow the shape of the dose curve; as a rule, active = well fitted inhibition curve with a large enough effect; inconclusive = small, poorly fitted or top-dose-only effect; inactive = flat fitted curve, though single readings scatter.
Outcome (select one): active, inactive

>>> class_assignment("O=CCCCC=O")
"inactive"

With those in mind, consider the next molecule.
// query What outcome does the record of this test show for CC(C(=O)O)c1ccc(N2Cc3ccccc3C2=O)cc1 (stereo not given) ?
// result inactive

###

System: Tov112D
Assay text: Primary qHTS to identify gynecologic anti-cancer compounds using libraries of approved drugs and bioactive compounds (AID 1345084); also: % is scaled to controls: 0 for no effect and ±100 for the full control effect; nearly all actives have a fitted effect of over 55% in size
Experimental context: Gynecologic cancer cell panel viability, ATPlite luminescence, 48 h; series mostly up to 57.5 µM
Results filed as inconclusive are left out. The source made the active and inactive calls. The call rests on the fitted dose curve; in most records, active means well fitted cell-killing curve with a large enough effect; inconclusive means small, poorly fitted or top-dose-only effect, or effect the other way; inactive means flat fitted curve, though single readings scatter.
Observable: activity change, negative = cytotoxicity

Solved entries:
>>> result("O=C(OCC12OC1C=CC(OC(=O)c1ccccc1)C2O)c1ccccc1 (stereo not given)")
"inactive"
>>> result("CCC(=O)N[C@@H]1Cc2ccccc2[C@H](c2ccccc2)C1")
"inactive"
>>> result("COC(=O)[C@@H]1C2CC3c4[nH]c5ccccc5c4CCN3CC2CC[C@@H]1O (stereo not given in full)")
"inactive"
>>> result("CCOC(=O)[C@H](CCc1ccccc1)CC1(C(=O)N[C@H]2CCc3ccccc3N(CC(=O)O)C2=O)CCCC1")
"inactive"

Given item C=C1C(=O)O[C@H]2[C@H]1[C@@H](OC(=O)C(C)CO)C[C@@]1(C)[C@H](O)CCC(=O)[C@H]21 (stereo not given in full) , the value recorded as its activity change, negative = cytotoxicity is inactive

###

Assay text: qHTS Assay for Identifying Gametocytocidal Compounds (AID 743244);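 also: % is scaled to controls: 0 for no effect and ±100 for the full control effect; actives lower the fluorescent signal which means gametocytes are killed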
Experimental context: P. falciparum 3D7 stage III-V gametocytes, alamarBlue, 72 h; active compounds read low
Results filed as inconclusive are left out.
Observable: max response (%)
Report as a plain number; the unit % is understood.

Please review the entries below; each comes with its answer.
>>> numeric_value("CCCCC(=O)O[C@]1(C(=O)CO)[C@H](C)C[C@H]2[C@@H]3CCC4=CC(=O)C=C[C@]4(C)[C@@]3(F)[C@@H](O)C[C@@]21C")
12.3
>>> numeric_value("CCCCCCCC/C=C\\CCCCCCCC(=O)O")
5.58
>>> numeric_value("CC1(C)S[C@@H]2[C@H](NC(=O)C(N)c3ccccc3)C(=O)N2[C@H]1C(=O)OC1OC(=O)c2ccccc21 (some centres undefined)")
16.4
>>> numeric_value("CCCCC(C)(O)C/C=C/[C@H]1[C@H](O)CC(=O)[C@@H]1CCCCCCC(=O)OC (some centres undefined)")
-1.16
>>> numeric_value("C=CC1=C(C)C2=CC3=NC(=C(CC(=O)[O-])C4=NC(=C(C)C4=C([O-])[O-])C=c4[n-]c(c(C)c4CC)=CC1=N2)C(CCC(=O)[O-])C3C.[Cu+2].[Na+].[Na+].[Na+] (centres undefined)")
14.4

Field max response (entry CC(NC(=O)Cc1cc(F)cc(F)c1)C(=O)NC(C(=O)OC(C)(C)C)c1ccccc1 (centres undefined) ) reads 8.47

Recorded result, COC(=O)C1=C(C#N)NC(C)=C(C(=O)OC(C)C)C1c1cccc([N+](=O)[O-])c1 (centres undefined) , max response: 13.2

Memo: `COc1ccc(C[C@@H](C)NC[C@H](O)c2ccc(O)c(NC=O)c2)cc1` , reported max response: 19.6

max response measured on `CC(=O)N[C@@H](CC(=O)N[C@@H](CCC(=O)O)C(=O)O)C(=O)O` = -4.86

max response in this record for `CCCCCCCC(=O)O` : 10

Entry CNC(C)[C@@H]1CC[C@@H](N)[C@@H](O[C@H]2[C@H](O)[C@@H](O[C@H]3OC[C@](C)(O)[C@H](NC)[C@H]3O)[C@H](N)C[C@@H]2N)O1 (some centres undefined) , max response reported as 5.9

GET /value?item= `CC[C@@]1(O)C(=O)OCc2c1cc1n(c2=O)Cc2cc3c([N+](=O)[O-])cccc3nc2-1` &field=max response returns 2.02

Record summary for `C[C@]12CCC(=O)C=C1CC[C@@H]1[C@@H]2[C@@H](O)C[C@@]2(C)[C@H]1CC[C@]2(O)C(=O)COP(=O)(O)O` : reported max response = -12.2

Lab note: measured max response of `CCOC(C)=O` was 12.9

Given item `O=S(=O)(O)c1ccc2c(N=Nc3ccc(S(=O)(=O)O)c4ccccc34)c(O)c(S(=O)(=O)O)cc2c1` , the value recorded as its max response is 11.5

// sample `CC(C)(C)C(=O)OCOC(=O)[C@@H]1N2C(=O)[C@@H](N=CN3CCCCCC3)[C@H]2SC1(C)C` , its max response was 2.95

Noted for `CC1(C)S[C@@H]2[C@H](NC(=O)[C@@H](NC(=O)N3CCNC3=O)c3ccccc3)C(=O)N2[C@H]1C(=O)O` : its max response reads 5.13

Lookup result for CN1C(=O)CN2CCc3ccccc3C2c2cc(Cl)ccc21 (centres undefined) ; measured max response: 0.102

The compound listed as `Nc1ncnc2c1ncn2[C@@H]1O[C@H](COP(=O)(O)OP(=O)(O)OP(=O)(O)O)[C@@H](O)[C@H]1O` shows max response equal to -2.1

The value of max response measured for the compound `CCCC(=O)Nc1ncnc2c1ncn2[C@@H]1O[C@@H]2COP(=O)(O)O[C@H]2[C@H]1OC(=O)CCC` turned out to be -2.66

get_value(item= `CC1=C(/C=C/C(C)=C/C=C/C(C)=C/CO)C(C)(C)CCC1` , readout=max response) returns 11.8

// sample `CC(=O)OCC(=O)[C@@]1(O)CC[C@H]2[C@@H]3C[C@H](C)C4=CC(=O)C=C[C@]4(C)[C@H]3[C@@H](O)C[C@@]21C` , its max response was -1.15

Sure, the documented max response for `IC(I)I` is 8.07

max response recorded for this compound, O=c1cc(C2=CC=CC3Sc4ccccc4SC23)oc(N2CCOCC2)c1 (centres undefined) , is -19.3

Per the records, this compound ( `Cc1onc(-c2ccccc2)c1C(=O)N[C@@H]1C(=O)N2[C@@H]1SC(C)(C)[C@@H]2C(=O)O` ) has max response equal to -0.392

The measured max response associated with `C[C@H](CCC(=O)O)[C@H]1CC[C@H]2[C@@H]3[C@H](O)C[C@@H]4C[C@H](O)CC[C@]4(C)[C@H]3CC[C@]12C` reads 11

The recorded max response for `COc1cc([C@@H]2c3cc4c(cc3[C@@H](O[C@@H]3O[C@@H]5CO[C@@H](C)O[C@H]5[C@H](O)[C@H]3O)[C@H]3COC(=O)[C@H]23)OCO4)cc(OC)c1O` is -3.58

# max response (compound: CC(C)(C)C1(O)CCN2CC3c4ccccc4CCc4cccc(c43)C2C1 (centres undefined) ) is 10.9

Per the record, `CCC(=O)O[C@@H]1CC(=O)O[C@H](C)C/C=C/C=C/[C@H](O)[C@H](C)C[C@H](CC=O)[C@H](O[C@@H]2O[C@H](C)[C@@H](O[C@H]3C[C@@](C)(O)[C@@H](OC(=O)CC)[C@H](C)O3)[C@H](N(C)C)[C@H]2O)[C@H]1OC` has max response of 4.15
